Cited source for all entries: ChEMBL document CHEMBL3885861

So I've got a bunch of compounds here, and I need their WBC values.
- Species: Rattus norvegicus
- assay_text: Open TG-GATES - Regimen: Daily Repeat
- Assay type: toxicity, organism-based, Sprague-Dawley
- Design: regimen Daily Repeat, gender Male, age 6 weeks
- run_parameters: in vivo, po, 0 mg/kg, 72 h, tissue Blood, route gavage, dose level Control, time 3 day
Answers are plain numbers, in x10_2/uL.

compound: COc1ccc2[nH]c([S+]([O-])Cc3ncc(C)c(OC)c3C)nc2c1 (stereo not drawn)
unit_symbol: x10_2/uL
WBC: 91.3
--
compound: NC(N)=Nc1nc(CSCCC(N)=NS(N)(=O)=O)cs1
unit_symbol: x10_2/uL
WBC: 75.1
--
compound: CC(C)OC(=O)C(C)(C)Oc1ccc(C(=O)c2ccc(Cl)cc2)cc1 [FENOFIBRATE]
unit_symbol: x10_2/uL
WBC: 80.3

For each of the compounds below, state WBC.
1. CN1C(=O)CN=C(c2ccccc2)c2cc(Cl)ccc21
2. COC1=CC(=O)C[C@@H](C)[C@]12Oc1c(Cl)c(OC)cc(OC)c1C2=O
3. NNC(=O)c1ccncc1
4. CCOc1ccc(NC(=O)CC(C)O)cc1 (stereo not drawn)
5. CCCNC(=O)NS(=O)(=O)c1ccc(Cl)cc1 [CHLORPROPAMIDE]

(A)
1: 104; 2: 92; 3: 101.8; 4: 91.6; 5: 84
